Each recorded value in this set is attributed to PubChem BioAssay (NCATS).

Would you kindly list activation for each of these compounds?
Assay: qHTS assay for small molecule activators of the p53 signaling pathway (AID 651743); also: % of control where 0% means no effect
Conditions: HCT-116 p53RE-bla, beta-lactamase FRET ratio, 16 h; stronger effect = higher value
Records with an inconclusive call do not appear. Activity calls are given as the source filed them. Calls follow the shape of the dose curve; as a rule, active = well fitted activation curve with a large enough effect in the signal ratio (not every such curve was filed as active); inconclusive = small, poorly fitted or top-dose-only effect, or a change in a side signal; inactive = flat fitted curve, though single readings scatter; the % refers to the signal ratio.

// query Input `C=CCOc1nc(OCC=C)nc(OCC=C)n1` , output reported activation.
// result -3.44% (inactive)

// query Input `C=CCCCCCCCCCC` , output reported activation.
// result -0.565% (inactive)

// query Input `C[Si]1(C)N[Si](C)(C)N[Si](C)(C)N1` , output reported activation.
// result -5.2% (inactive)

// query Input `Cc1nn(C)c(Oc2ccccc2)c1/C=N/OCc1ccc(C(=O)OC(C)(C)C)cc1` , output reported activation.
// result 9.47% (inactive)

---

Molecular target: Cytochrome P450 3A4 (Homo sapiens)
Test: qHTS Assay for Activators of Cytochrome P450 3A4 (AID 885); also: nearly all actives have a fitted effect of over 65% in size
Details: recombinant CYP3A4, Luciferin-PPXE luminescence, 60 min; series mostly up to 57.1 µM
Activity calls are given as the source filed them. Calls come from the whole dose curve; as a rule, active = well fitted activation curve with a large enough effect; inconclusive = small, poorly fitted or top-dose-only effect; inactive = no such curve, though single readings can be large or run the other way.
attribute.measured: activity change, positive = activation

- COC(=O)C1=C(C)N(Cc2ccccc2)[C@]23O[C@](C(=O)OC)(C(=O)N2C1c1ccccc1)C1CCCC(=O)C13 (some centres undefined): -50.6% [at 11.4 µM] (inactive)
- CCOC(=O)OCC1OC(CCc2ccccc2)CCC1Oc1ccc(OC)cc1 (centres undefined): -68.7% [at 11.4 µM] (inactive)
- CC(=O)c1c(O)c(C)c(O)c2c1OC1=CC(=O)C(C(C)=O)C(=O)[C@@]12C (some centres undefined): inactive
- COC(=O)[C@@]1(Cc2ccccc2)[C@H]2c3cc(C(=O)N4CCCC4)[nH]c3C[C@H]2CN1C(=O)c1ccccc1: inactive

---

Molecular target: Cytochrome P450 3A4 (Homo sapiens) (UniProt P08684)
Sequence (P08684 whole entry, looked up): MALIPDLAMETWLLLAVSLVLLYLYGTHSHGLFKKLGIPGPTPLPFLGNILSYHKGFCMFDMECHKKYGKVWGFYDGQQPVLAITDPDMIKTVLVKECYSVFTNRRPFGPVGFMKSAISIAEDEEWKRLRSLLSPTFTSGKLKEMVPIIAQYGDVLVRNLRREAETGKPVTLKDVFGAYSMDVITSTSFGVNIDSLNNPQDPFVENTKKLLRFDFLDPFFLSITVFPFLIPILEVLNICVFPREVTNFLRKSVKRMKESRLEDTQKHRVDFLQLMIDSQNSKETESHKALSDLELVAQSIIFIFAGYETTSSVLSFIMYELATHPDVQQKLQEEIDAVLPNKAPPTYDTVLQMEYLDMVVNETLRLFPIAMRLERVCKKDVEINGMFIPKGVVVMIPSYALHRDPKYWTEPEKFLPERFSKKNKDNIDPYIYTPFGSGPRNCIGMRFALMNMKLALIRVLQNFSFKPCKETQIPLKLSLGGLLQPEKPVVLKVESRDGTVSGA
Test: qHTS Assay for Activators of Cytochrome P450 3A4 (AID 885); also: nearly all actives have a fitted effect of over 65% in size
Settings: recombinant CYP3A4, Luciferin-PPXE luminescence, 60 min; series mostly up to 57.1 µM
Activity calls are given as the source filed them. The call rests on the fitted dose curve; in most records, active means well fitted activation curve with a large enough effect; inconclusive means small, poorly fitted or top-dose-only effect; inactive means no such curve, though single readings can be large or run the other way.
attribute.measured: activity change, positive = activation

• CCC1=C(OC(=O)N(CC)CC)N2C(=O)OC(=NCCc3c[nH]c4ccccc34)[C@]2(Cc2ccccc2)[C@H]2C1=CC[C@H]1C(=O)N(CC(=O)OC)C(=O)[C@H]12 = inactive
• COC(=O)[C@@]1(Cc2ccc(F)cc2)[C@H]2c3cc(C(=O)N4CCCC4)n(Cc4ccc(S(C)(=O)=O)cc4)c3C[C@H]2CN1C(=O)c1ccccc1 = inactive
• COC(=O)[C@@H]1C[C@@]2(O)[C@H](O)[C@H](O)[C@H](O)C[C@H]2N1Cc1ccccc1OS(=O)(=O)c1ccc(C)cc1 = inactive
• COC(=O)[C@@]1(Cc2ccccc2)[C@H]2c3cc(C(=O)N(C)C)n(Cc4c(CO)[nH]cc(C)c4=O)c3C[C@H]2CN1C(=O)c1ccccc1 = inactive
• N#Cc1ccc(C23CC4(C2)[C@H](CN(P(=O)(c2ccccc2)c2ccccc2)[C@@H]4c2ccccc2)C3c2ccc(Cl)nc2)cc1 (stereo partly drawn) = inactive
• CCCCNC(=O)C(c1ccc(OCC(=O)OC)c(C(=O)OC)c1)N(CCc1ccccc1)C(=O)CCCCCN1C(=O)NC(c2ccc(-c3ccccc3)cc2)C(C(=O)OCc2ccccc2)=C1C (stereo not drawn) = inactive
• COC(=O)c1ccc(C23CC4(C2)[C@H](CN(CC2CCCCC2)[C@@H]4c2ccccc2)C3c2ccccc2)cc1 (stereo partly drawn) = inactive
• C=C(C)C(O)/C=C/c1ccc(C)cc1 (stereo not drawn) = -72.8% [at 11.4 µM] (inactive)
• COC(=O)c1ccc(C(NC(=O)OCc2ccccc2)/C(F)=C/[C@@H](C)C(=O)Nc2ccc(OC)cc2)cc1 (stereo partly drawn) = inactive
• O=C1[C@H]2[C@H]3[C@H](O)[C@H](O)C/C(=N/OC[C@@H](O)COCc4ccco4)[C@H]3CC[C@@H]2C(=O)N1c1cccc(Oc2ccccc2)c1 = -40.2% [at 11.4 µM] (inactive)

// query Input CN1C[C@@H]2C(c3ccc(Cl)nc3)C3(c4ccccc4)CC2(C3)[C@H]1c1ccccc1 (stereo partly drawn) , output reported activity change, positive = activation.
// result inactive

// query Input `COC(=O)C[C@@H]1O[C@H]1[C@H](C)[C@@H](OC)C(C)C` , output reported activity change, positive = activation.
// result -66.6% [at 11.4 µM] (inactive)

// query Input COc1ccc(OC2C=CC(C#Cc3ccccc3)OC2CO)cc1 (stereo not drawn) , output reported activity change, positive = activation.
// result -79.3% [at 11.4 µM] (inactive)

// query Input `CC(=O)OC[C@@H]1O[C@@H](O/N=C2/C[C@@H](O)[C@@H](O)[C@@H]3[C@@H]4C(=O)N(c5cccc(Oc6ccccc6)c5)C(=O)[C@H]4CC[C@H]23)[C@H](OC(C)=O)[C@H](OC(C)=O)[C@@H]1OC(C)=O` , output reported activity change, positive = activation.
// result -36.6% [at 11.4 µM] (inactive)

// query Input `COCOc1ccc(Br)cc1C(=O)[C@H]1O[C@H]1c1cccc(OC)c1` , output reported activity change, positive = activation.
// result -113% [at 11.4 µM] (inactive)
